Overview of recorded percent covalent labeling at 10 µM for various compounds
Target: K-RasG12C (1-169) (Homo sapiens, UniProt P01116, G12C)
Construct: Un-tagged recombinant K-Ras G12C (1-169) at 4 μM in Buffer A; hexahistidine (cleaved yes); made in house; host or cells: Escherichia coli BL21 (DE)
Sequence (P01116 1-169 isoform P01116-2 G12C): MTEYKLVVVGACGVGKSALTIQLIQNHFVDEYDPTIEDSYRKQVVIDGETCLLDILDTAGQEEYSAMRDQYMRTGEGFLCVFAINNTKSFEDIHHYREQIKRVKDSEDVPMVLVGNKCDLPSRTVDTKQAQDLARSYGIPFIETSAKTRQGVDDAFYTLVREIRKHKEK
Test: Mass spectrometric screen for extent of covalent labeling
Type: binding
Conditions: 2 h, 10 micromolar, 2 hrs; read-out: Percent reduction in activity of compound at 10 micromolar relative to control (no compound), 2 hrs

Known results for compounds:
1. C=CS(=O)(=O)NC1CCN(C(=O)COc2cc(S(N)(=O)=O)c(Cl)cc2Cl)CC1 ≤ 5%
2. C=CS(=O)(=O)NC1CCN(C(=O)CNc2cc(I)c(Cl)cc2O)CC1 20 to 40%

Task: Form field: reported percent covalent labeling at 10 µM of `C=CC(=O)NC1CCN(C(=O)Cn2cnc3ccccc32)CC1`
Output: ≤ 5%

----------
Overview of recorded percent covalent labeling at 10 µM for various compounds
Target: K-RasG12C (1-169) (Homo sapiens, UniProt P01116, G12C)
Construct: Un-tagged recombinant K-Ras G12C (1-169) at 4 μM in Buffer A; hexahistidine (cleaved yes); made in house; host or cells: Escherichia coli BL21 (DE)
Assay: Mass spectrometric screen for extent of covalent labeling
Format: binding
Details: 6 h, 10 micromolar, 6 hrs; read-out: Percent reduction in activity of compound at 10 micromolar relative to control (no compound), 6 hrs

Known results for compounds:
compound	observation-type	recorded-measurement
C=CC(=O)NCCCNC(=O)COc1ccc(Cl)cc1Cl [JO-02-37B]	percent covalent labeling at 10 µM	≤ 5%
C=CS(=O)(=O)NC1CCN(C(=O)COc2cc(C(N)=O)c(Cl)cc2Cl)CC1	percent covalent labeling at 10 µM	≤ 5%
C=CS(=O)(=O)NC1CCN(C(=O)CNc2cc(Cl)c(Cl)cc2O)CC1	percent covalent labeling at 10 µM	20 to 40%
C=CS(=O)(=O)NC1CCN(C(=O)COc2cc(Br)c(Cl)cc2Cl)CC1	percent covalent labeling at 10 µM	≤ 5%
O=C(NC1CCN(C(=O)CNc2cc(Cl)c(Cl)cc2I)CC1)C1CO1 (stereo not drawn)	percent covalent labeling at 10 µM	≤ 5%

// switching to the query compound
Task: Form field: reported percent covalent labeling at 10 µM of `C=CS(=O)(=O)N1CCC(Nc2cc(-c3cc(Cl)c(Cl)cc3I)ccn2)CC1`
Output: ≤ 5%

----------
Target: K-RasG12C (1-169) (Homo sapiens, UniProt P01116, G12C)
Construct: Un-tagged recombinant K-Ras G12C (1-169) at 4 μM in Buffer A; hexahistidine (cleaved yes); made in house; host or cells: Escherichia coli BL21 (DE)
Assay: Mass spectrometric screen for extent of covalent labeling
Type: binding
Settings: 24 h, 10 micromolar, 24 hrs; read-out: Percent reduction in activity of compound at 10 micromolar relative to control (no compound), 24 hrs
observation-type: percent covalent labeling at 10 µM

compound	observation-type	recorded-measurement
C=CS(=O)(=O)NCC(=O)Nc1cc(-c2ccc(Cl)cc2)n[nH]1 [JO-02-139E]	percent covalent labeling at 10 µM	≤ 5%

Task: Form field: reported percent covalent labeling at 10 µM of C=CS(=O)(=O)NC1CCN(C(=O)COc2ccc(Cl)cc2I)CC1 [Ras-030]
Output: 40 to 60%

Task: And for C=CC(=O)N1CCN(C(=O)CNc2cc(I)c(Cl)cc2O)CC1 [Ras-083] ?
Output: > 60%

----------
Target: K-RasG12C (1-169) (Homo sapiens, UniProt P01116, G12C)
Construct: Un-tagged recombinant K-Ras G12C (1-169) at 4 μM in Buffer A; hexahistidine (cleaved yes); made in house; host or cells: Escherichia coli BL21 (DE)
Assay: Mass spectrometric screen for extent of covalent labeling
Format: binding
Conditions: 24 h, 10 micromolar, 24 hrs; read-out: Percent reduction in activity of compound at 10 micromolar relative to control (no compound), 24 hrs
observation-type: percent covalent labeling at 10 µM

Known results for compounds:
compound	observation-type	recorded-measurement
C=CC(=O)NCCNC(=O)COc1ccc(Cl)cc1Cl [JO-02-37A]	percent covalent labeling at 10 µM	≤ 5%
C=CC(=O)N1CCN(C(=O)CNc2cc(Cl)c(Cl)cc2OC)CC1 [Ras-062]	percent covalent labeling at 10 µM	20 to 40%

Task: Form field: reported percent covalent labeling at 10 µM of C=CC(=O)NC1CCN(C(=O)COc2ccc(Cl)cc2Cl)CC1 [JO-01-171]
Output: ≤ 5%

Task: And for C=CS(=O)(=O)NCCCNC(=O)COc1ccc(Cl)cc1Cl [JO-02-36B] ?
Output: ≤ 5%

Task: And for C=CS(=O)(=O)NC1CCN(C(=O)C(C)Oc2ccc(Cl)cc2Cl)CC1 (centres unmarked) [JO-02-115B] ?
Output: ≤ 5%

----------
Target: K-RasG12C (1-169) (Homo sapiens, UniProt P01116, G12C)
Construct: Un-tagged recombinant K-Ras G12C (1-169) at 4 μM in Buffer A; hexahistidine (cleaved yes); made in house; host or cells: Escherichia coli BL21 (DE)
Experiment: Mass spectrometric screen for extent of covalent labeling
Assay type: binding
Settings: 24 h, 10 micromolar, 24 hrs; read-out: Percent reduction in activity of compound at 10 micromolar relative to control (no compound), 24 hrs
Method: Un-tagged recombinant K-Ras G12C (1-169) at 4 μM in Buffer A was reacted with inhibitors at 200 μM or 10 μM (2% DMSO final). At 2, 6, and 24 hrs, 10 μL aliquots were removed and the reactions were stopped by addition of 1 μL 2% formic acid. The extent of modification was determined by mass spectrometry.
observation-type: percent covalent labeling at 10 µM

Known results for molecules:
molecule	observation-type	recorded-measurement
C#CCOc1cc(OCC(=O)N2CCC(NS(=O)(=O)C=C)CC2)c(Cl)cc1Cl	percent covalent labeling at 10 µM	> 60%
C=CC(=O)N1CCN(C(=O)CNc2cc(Cl)c(Cl)cc2I)CC1	percent covalent labeling at 10 µM	40 to 60%
C=CS(=O)(=O)NC1CCN(C(=O)CCn2cnc3ccccc32)CC1	percent covalent labeling at 10 µM	≤ 5%
C=CS(=O)(=O)NC1CCN(C(=O)COc2cc(N(C)C)c(Cl)cc2Cl)CC1	percent covalent labeling at 10 µM	5 to 20%
C=CS(=O)(=O)NC1CCN(C(=O)CSc2n[nH]c(C)n2)CC1 [UP-I-164C]	percent covalent labeling at 10 µM	≤ 5%

// switching to the query molecule
Task: Form field: reported percent covalent labeling at 10 µM of `C=CS(=O)(=O)NC1CCN(C(=O)COc2ccc(Cl)cc2N)CC1`
Output: ≤ 5%

----------
Molecular target: K-RasG12C (1-169) (Homo sapiens, UniProt P01116, G12C)
Construct: Un-tagged recombinant K-Ras G12C (1-169) at 4 μM in Buffer A; hexahistidine (cleaved yes); made in house; host or cells: Escherichia coli BL21 (DE)
Assay: Mass spectrometric screen for extent of covalent labeling
Format: binding
Settings: 6 h, 10 micromolar, 6 hrs; read-out: Percent reduction in activity of compound at 10 micromolar relative to control (no compound), 6 hrs
Overview of recorded percent covalent labeling at 10 µM for various compounds

Known results for compounds:
compound	observation-type	recorded-measurement
C=CC(=O)NCCNC(=O)COc1ccc(Cl)cc1Cl [JO-02-37A]	percent covalent labeling at 10 µM	≤ 5%
C=CS(=O)(=O)NC1CCN(C(=O)CN(C)c2cc(Cl)c(Cl)cc2I)CC1	percent covalent labeling at 10 µM	≤ 5%
C=CS(=O)(=O)NC1CCN(C(=O)COc2cc(C(F)(F)F)c(Cl)cc2Cl)CC1	percent covalent labeling at 10 µM	≤ 5%
O=C(COc1ccc(Cl)cc1Cl)N1CCC(NCC2CO2)CC1 (stereo not drawn) [JO-02-77A]	percent covalent labeling at 10 µM	≤ 5%
C=CS(=O)(=O)NCC(=O)N1CCC(NC(=O)COc2ccc(Cl)cc2Cl)CC1 [JO-02-56B]	percent covalent labeling at 10 µM	≤ 5%
C=CS(=O)(=O)NC1CCN(C(=O)Cn2ncc3ccccc32)CC1	percent covalent labeling at 10 µM	≤ 5%
C=CS(=O)(=O)NC1CCN(C(=O)COc2ncnc3sc(C)cc23)CC1 [UP-I-154K]	percent covalent labeling at 10 µM	≤ 5%
C=CS(=O)(=O)NC1CCN(C(=O)COc2ccc(Cl)cc2CN)CC1	percent covalent labeling at 10 µM	≤ 5%
C=CC(=O)NC1CCN(C(=O)CCn2ncc3ccccc32)CC1	percent covalent labeling at 10 µM	≤ 5%
C=CS(=O)(=O)NC1CCN(C(=O)CSc2nnc(C)o2)CC1 [UP-I-164B]	percent covalent labeling at 10 µM	≤ 5%

Task: K-RasG12C (1-169) (Homo sapiens, UniProt P01116, G12C) / percent covalent labeling at 10 µM / `C=CC(=O)N1CCN(C(=O)CNc2cc(Cl)c(Cl)cc2I)CC1` : value?
Output: 5 to 20%

Task: And for `C=CS(=O)(=O)NC1CCN(C(=O)COc2cc(N(C)C)c(Cl)cc2Cl)CC1` ?
Output: ≤ 5%

Task: And for C=CS(=O)(=O)NC1CCN(C(=O)CSc2n[nH]c(C)n2)CC1 [UP-I-164C] ?
Output: ≤ 5%

Task: And for `C=CS(=O)(=O)NC1CCN(C(=O)COc2ccc(Cl)cc2OC)CC1` ?
Output: ≤ 5%

Task: And for C=CS(=O)(=O)NCCNC(=O)COc1ccc(Cl)cc1Cl [JO-02-36A] ?
Output: ≤ 5%
